B1: NF2 (merlin) isoform 7, human, full length (507 aa, lacks exons 2-3 = isoform-1 residues 39-121; exon-16 C-terminus), P35240-4 (parent)
chain: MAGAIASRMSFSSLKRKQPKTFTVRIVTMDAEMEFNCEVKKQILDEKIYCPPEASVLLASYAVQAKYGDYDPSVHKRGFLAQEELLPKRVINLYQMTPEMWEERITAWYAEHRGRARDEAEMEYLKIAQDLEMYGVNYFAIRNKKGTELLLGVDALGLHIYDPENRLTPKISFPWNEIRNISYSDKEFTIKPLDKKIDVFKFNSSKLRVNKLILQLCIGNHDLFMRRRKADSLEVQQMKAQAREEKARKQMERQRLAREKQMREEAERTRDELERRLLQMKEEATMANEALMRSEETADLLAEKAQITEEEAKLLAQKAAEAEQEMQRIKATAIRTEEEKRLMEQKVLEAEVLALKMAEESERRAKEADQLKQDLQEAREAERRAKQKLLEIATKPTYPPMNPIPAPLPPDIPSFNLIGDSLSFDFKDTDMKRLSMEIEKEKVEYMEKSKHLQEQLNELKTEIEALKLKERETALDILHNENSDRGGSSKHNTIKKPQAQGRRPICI

# Variants of: B1
# METHOD NOTES: reverse yeast two-hybrid deep mutational scan (rY2H-seq): NF2 isoform 7 mutant library as bait mated with wild-type prey strains; selection on medium lacking adenine for non-interacting pairs; NextSeq paired-end sequencing; enrichment vs …
# CONDITIONS: with EMILIN1 (elastin microfibril interfacer 1), Q9Y6C2; yeast diploids after mating (RBait_S3 x RPrey_S3), 30 °C, selection for reporter genes on NB agar; human ABL2 co-expressed as the kinase-dead K35M mutant …; HIGHER = WEAKER BINDING (the opposite of display enrichments): higher = stronger loss of interaction: reverse Y2H selects yeast in which bait and prey do NOT interact (growth without adenine), so a …; hits-only table; scale: rY2H score; numbering: uniprot, sequence starts at 1
Would you mind labelling by enrichment? At or over 3 is class 1, under is class 0.

Use the examples below as a reference point.
1. I178K
class 1
2. M122E
class 1
3. L422K
class 1
4. E296L
class 0
5. L214E
class 1
6. H479E
class 1
7. E359K
class 0
8. T297A
class 0

Hi team, for `Q324A` , is the recorded enrichment at or above 3?
class 0

Hi team, for `E338L` , is the recorded enrichment at or above 3?
class 0
